system: bovine brain tubulin; test: Inhibition of tubulin polymerization (turbidimetry); type: biochemical; conditions: tubulin at 10 μM, 20 min incubation; read-out: Tubulin assembly IC50 ± S.D.
pIC50: −log10 of the molar value.
Label N if pIC50 falls below 6; label Y in every other case.

Identify whether the reported pIC50 of the following compound is 6 or greater: COc1cc(-n2ccnc2-c2ccc3ccccc3c2)cc(OC)c1OC [Compound 3c, reference compound]
N

Quick check: does CCOc1ccc(-c2nccn2-c2cc(OC)c(OC)c(OC)c2)cc1F [Compound 4n] have pIC50 greater than or equal to 6?
Y

Decide: is the reported value of pIC50 for CCOc1ccc(-c2nccn2-c2cc(OC)c(OC)c(OC)c2)cc1 [Compound 4k] equal to or greater than 6?
Y
